Tested on: Enterococcus faecalis
assay_procedure: Antibacterial activity against Enterococcus faecalis MTCC439 after 24 hrs by spectrophotometry
Format: functional
applied_conditions: MTCC439, 24 h
MIC for assorted molecules

record_smiles: CC(=O)NC[C@H]1CN(c2ccc(N3CCN(CCn4ccnc4[N+](=O)[O-])CC3)c(F)c2)C(=O)O1
MIC, µg/mL: 25
//
record_smiles: CN[C@H](CC(C)C)C(=O)N[C@H]1C(=O)N[C@@H](CC(N)=O)C(=O)N[C@H]2C(=O)N[C@H]3C(=O)N[C@H](C(=O)N[C@H](C(=O)O)c4cc(O)cc(O)c4-c4cc3ccc4O)[C@H](O)c3ccc(c(Cl)c3)Oc3cc2cc(c3O[C@@H]2O[C@H](CO)[C@@H](O)[C@H](O)[C@H]2O[C@H]2C[C@](C)(N)[C@H](O)[C@H](C)O2)Oc2ccc(cc2Cl)[C@H]1O
MIC, µg/mL: 0.78
//
record_smiles: CC(=O)NC[C@H]1CN(c2ccc(N3CCN(CCCn4cnc([N+](=O)[O-])c4)CC3)c(F)c2)C(=O)O1
MIC, µg/mL: 0.78
//
record_smiles: CC(=O)NC[C@H]1CN(c2ccc(N3CCN(CCn4c([N+](=O)[O-])cnc4C)CC3)c(F)c2)C(=O)O1
MIC, µg/mL: 3.12
//
record_smiles: CC(=O)NC[C@H]1CN(c2ccc(N3CCN(CCCn4c([N+](=O)[O-])cnc4C)CC3)c(F)c2)C(=O)O1
MIC, µg/mL: 12.5

====

Tested on: Bacillus cereus
assay_procedure: Antibacterial activity against Bacillus cereus MTCC 430 after 24 hrs by spectrophotometry
Assay type: functional
applied_conditions: MTCC 430, 24 h
So basically, if MIC comes in under 0.8 µg/mL it's True, and if it's 0.8 µg/mL or more it's False.

molecule: CC(=O)NC[C@H]1CN(c2ccc(N3CCN(CC(O)Cn4cnc([N+](=O)[O-])c4)CC3)c(F)c2)C(=O)O1 (stereo partly specified)
class: False

molecule: CC(=O)NC[C@H]1CN(c2ccc(N3CCN(C(=O)Cn4cnc([N+](=O)[O-])c4)CC3)c(F)c2)C(=O)O1
class: False

molecule: CN[C@H](CC(C)C)C(=O)N[C@H]1C(=O)N[C@@H](CC(N)=O)C(=O)N[C@H]2C(=O)N[C@H]3C(=O)N[C@H](C(=O)N[C@H](C(=O)O)c4cc(O)cc(O)c4-c4cc3ccc4O)[C@H](O)c3ccc(c(Cl)c3)Oc3cc2cc(c3O[C@@H]2O[C@H](CO)[C@@H](O)[C@H](O)[C@H]2O[C@H]2C[C@](C)(N)[C@H](O)[C@H](C)O2)Oc2ccc(cc2Cl)[C@H]1O
class: True

molecule: CC(=O)NC[C@H]1CN(c2ccc(N3CCN(CCn4c([N+](=O)[O-])cnc4C)CC3)c(F)c2)C(=O)O1
class: True

molecule: CC(=O)NC[C@H]1CN(c2ccc(N3CCN(C(=O)Cn4c([N+](=O)[O-])cnc4C)CC3)c(F)c2)C(=O)O1
class: False

molecule: CC(=O)NC[C@H]1CN(c2ccc(N3CCN(CCCn4ccnc4[N+](=O)[O-])CC3)c(F)c2)C(=O)O1
class: False

molecule: CC(=O)NC[C@H]1CN(c2ccc(N3CCN(CCCn4c([N+](=O)[O-])cnc4C)CC3)c(F)c2)C(=O)O1
class: False
